# System: HCVpp GT-1b
# EXPERIMENTAL_PROTOCOL: microbe, parasite or virus in culture
# Assay type: cell-based, Hepatitis C virus (GT1b Con1 strain)
# PROTOCOL_CONDITIONS: Hepatitis C virus, GT1B, 72 h, read-out: HCVpp GT-1b (EC50, μM)
Where a name gives a salt, the structure may show the parent alone.

- COMPOUND: "FC(F)(F)c1ccc(CNc2nc(Nc3cc(Cl)c(Br)c(C(F)(F)F)c3)n[nH]2)cc1"
  READOUT_UNIT: "µM"
  EC50: 1.35
- COMPOUND: "N#Cc1ccc(CNc2nc(Nc3cc(Cl)cc(Cl)c3)n[nH]2)cc1"
  READOUT_UNIT: "µM"
  EC50: 3.34
- COMPOUND: "CC(C)(C)OC(=O)c1ccc(CNc2nc(Nc3cc(Cl)cc(Cl)c3)n[nH]2)cc1"
  READOUT_UNIT: "µM"
  EC50: 0.414
- COMPOUND: "FC(F)(F)c1ccc(Cl)cc1CNc1nc(Nc2cc(Cl)cc(Cl)c2)n[nH]1"
  READOUT_UNIT: "µM"
  EC50: 4.66
- COMPOUND: "O=C(O)c1cccc(CNc2nc(Nc3cc(Cl)cc(Cl)c3)n[nH]2)c1 [Compound 13, trifluoroacetic acid salt]"
  READOUT_UNIT: "µM"
  EC50: 37.5
- COMPOUND: "CC(C)(C)OC(=O)Nc1ccc(CNc2nc(Nc3cc(Cl)cc(Cl)c3)n[nH]2)cn1"
  READOUT_UNIT: "µM"
  EC50: 7.81
- COMPOUND: "Clc1cc(Cl)cc(Nc2n[nH]c(NCc3ccco3)n2)c1"
  READOUT_UNIT: "µM"
  EC50: 2.58
- COMPOUND: "CS(=O)(=O)c1ccc(CNc2nc(Nc3cc(Cl)cc(Cl)c3)n[nH]2)cc1"
  READOUT_UNIT: "µM"
  EC50: 10

====

# Test system: HCVpp GT-1b
# EXPERIMENTAL_PROTOCOL: microbe, parasite or virus in culture
# Type: cell-based, Hepatitis C virus (GT1b Con1 strain)
# PROTOCOL_CONDITIONS: Hepatitis C virus, GT1B, 72 h, read-out: HCVpp GT-1b (EC50, μM)
Structures can show the parent of a compound that is named as a salt.
Measured log10(EC50), listed per entry.
MEASURED_ATTRIBUTE: log10(EC50) (log10 of the value in µM)

- COMPOUND: "N#Cc1c(Cl)cc(Nc2n[nH]c(NCc3ccc(C(F)(F)F)cc3)n2)cc1Cl [Compound 22]"
  OBSERVED_RESULT: -0.65
- COMPOUND: "Cc1ccc(CNc2nc(Nc3cc(Cl)cc(Cl)c3)n[nH]2)o1 [Compound 3]"
  OBSERVED_RESULT: 0.51
- COMPOUND: "Clc1ccc(CNc2nc(Nc3cc(Cl)cc(Cl)c3)n[nH]2)nc1 [Compound 5]"
  OBSERVED_RESULT: 0.20
- COMPOUND: "CC(=O)N1CCC(Nc2nc(Nc3cc(Cl)cc(Cl)c3)n[nH]2)CC1 [Compound 30]"
  OBSERVED_RESULT: 1.98
- COMPOUND: "Cn1cc(CNc2nc(Nc3cc(Cl)cc(Cl)c3)n[nH]2)cn1 [Compound 11]"
  OBSERVED_RESULT: 1.38
- COMPOUND: "O=C(O)c1ccc(CNc2nc(Nc3cc(Cl)cc(Cl)c3)n[nH]2)cc1 [Compound 12, trifluoroacetic acid salt]"
  OBSERVED_RESULT: 1.29
- COMPOUND: "FC(F)(F)c1cccc(CNc2nc(Nc3cc(Cl)cc(Cl)c3)n[nH]2)c1 [Compound 26]"
  OBSERVED_RESULT: -0.15
- COMPOUND: "CC(C)S(=O)(=O)c1ccc(-c2c(Cl)cc(Nc3n[nH]c(NCc4ccc(C(=O)OC(C)(C)C)cc4)n3)cc2C(F)(F)F)cc1 [Compound 24]"
  OBSERVED_RESULT: -1.85

====

# Test system: HCVpp GT-1b
# EXPERIMENTAL_PROTOCOL: microbe, parasite or virus in culture
# Assay type: cell-based, Hepatitis C virus (GT1b Con1 strain)
# PROTOCOL_CONDITIONS: Hepatitis C virus, GT1B, 72 h, read-out: HCVpp GT-1b (EC50, μM)
Where a name gives a salt, the structure may show the parent alone.
MEASURED_ATTRIBUTE: log10(EC50) (log10 of the value in µM)

- COMPOUND: "CC(C)(C)OC(=O)c1ccccc1CNc1nc(Nc2cc(Cl)cc(Cl)c2)n[nH]1 [Compound 8]"
  OBSERVED_RESULT: 1.00
- COMPOUND: "FC(F)(F)c1ccc(CNc2nc(Nc3cc(Cl)cc(Cl)c3)n[nH]2)cc1Cl [Compound 19]"
  OBSERVED_RESULT: 0.68
- COMPOUND: "CN(C)S(=O)(=O)c1ccc(CNc2nc(Nc3cc(Cl)cc(Cl)c3)n[nH]2)cc1 [Compound 17]"
  OBSERVED_RESULT: 1.00
- COMPOUND: "O=S(=O)(c1ccc(CNc2nc(Nc3cc(Cl)cc(Cl)c3)n[nH]2)cc1)N1CCCC1 [Compound 20]"
  OBSERVED_RESULT: 1.00
- COMPOUND: "CC(C)(C)OC(=O)N1CCC(Nc2nc(Nc3cc(Cl)cc(Cl)c3)n[nH]2)CC1 [Compound 28]"
  OBSERVED_RESULT: 0.82
- COMPOUND: "O=C(O)c1ccccc1CNc1nc(Nc2cc(Cl)cc(Cl)c2)n[nH]1 [Compound 14, trifluoroacetic acid salt]"
  OBSERVED_RESULT: 1.98
- COMPOUND: "O=S(=O)(c1ccc(CNc2nc(Nc3cc(Cl)cc(Cl)c3)n[nH]2)cc1)N1CCOCC1 [Compound 21]"
  OBSERVED_RESULT: 1.00
- COMPOUND: "Nc1ccc(CNc2nc(Nc3cc(Cl)cc(Cl)c3)n[nH]2)cn1 [Compound 10]"
  OBSERVED_RESULT: 1.77
- COMPOUND: "FC(F)(F)c1ccc(CNc2nc(Nc3cc(Cl)cc(Cl)c3)n[nH]2)cc1 [Compound 25]"
  OBSERVED_RESULT: -1.34
- COMPOUND: "CC(C)(C)OC(=O)c1ccc(CNc2nc(Nc3cc(Cl)c(C#N)c(Cl)c3)n[nH]2)cc1 [Compound 23]"
  OBSERVED_RESULT: -1.54
- COMPOUND: "CS(=O)(=O)N1CCC(Nc2nc(Nc3cc(Cl)cc(Cl)c3)n[nH]2)CC1 [Compound 27]"
  OBSERVED_RESULT: 1.78
- COMPOUND: "Clc1cc(Cl)cc(Nc2n[nH]c(NCc3cncnc3)n2)c1 [Compound 31]"
  OBSERVED_RESULT: 1.65
- COMPOUND: "Clc1cc(Cl)cc(Nc2n[nH]c(NCc3ccccc3)n2)c1 [Compound 9]"
  OBSERVED_RESULT: 0.24
- COMPOUND: "Clc1cc(Cl)cc(Nc2n[nH]c(NC3CCNCC3)n2)c1 [Compound 29]"
  OBSERVED_RESULT: 1.00
